Cited source for all entries: PubChem BioAssay (NCI)

Reported TGI values follow for various molecules
Test system: RXF 393 renal
Assay name: NCI tumour cell line growth inhibition, 48 h

Molecule: CC(C)C(N)=O
Unit descriptor: µM
Bound operator: >
TGI: 5000
--
Molecule: C=CCO[C@]1(CC=C)C(=O)C(=O)OC1C1COC(C)(C)O1 (stereo partly specified)
Unit descriptor: µM
Bound operator: =
TGI: 40.8
--
Molecule: CCCC(CCC)C(=O)OCC1(CO)C/C(=C\c2ccc(F)cc2)C(=O)O1 (stereo unspecified)
Unit descriptor: µM
Bound operator: =
TGI: 36.6
--
Molecule: FC(F)(F)C1(Br)C(c2ccccc2)=C1c1ccccc1
Unit descriptor: µM
Bound operator: =
TGI: 31.7
--
Molecule: O=C(O)/C(Cc1ccc([N+](=O)[O-])cc1)=N\O
Unit descriptor: µM
Bound operator: >
TGI: 100
--
Molecule: CN(c1ccccc1Cl)S(=O)(=O)c1ccc([N+](=O)[O-])cc1
Unit descriptor: µM
Bound operator: >
TGI: 100
--
Molecule: CC(C)(C)C1CCC2c3c([nH]c4ccccc34)C3C(=O)N(c4ccccc4)C(=O)C3C2C1 (stereo unspecified)
Unit descriptor: µM
Bound operator: =
TGI: 14.4
--
Molecule: Cc1ccc(NC(=O)CSc2nc(=O)[nH]c3nc[nH]c23)cc1
Unit descriptor: µM
Bound operator: >
TGI: 100
--
Molecule: COc1cccc(C2c3cc4c(cc3OC(N3CCCC3)C2C)OCO4)c1O (stereo unspecified)
Unit descriptor: µM
Bound operator: =
TGI: 17.4
--
Molecule: CC(=O)NC1=C[C@@H]([C@H]2COC(C)(C)O2)OC1=O
Unit descriptor: µM
Bound operator: >
TGI: 100
--
Molecule: COC(C)(C)C1(O)CCC(C)CC1=O (stereo unspecified)
Unit descriptor: µM
Bound operator: >
TGI: 100
